# maps each entry to its growth
tested on: MDA-MB-231 breast; test: NCI-60 one-dose screen, 48 h (100 = growth as untreated, 0 = no growth, -100 = all killed); settings: 10 µM unless noted
This is part of a sample that, as a whole, favours compounds with a hit. Of some 83,000 tested, about 20% had one in any assay.
Numbers only; they are read as %.

Record excerpt, results attached:
CCCCCCCCCCN1CC2CCCCC2C1 (stereo not given) :: 34.1
CC(O)CN(CC(C)O)N(CC(C)O)CC(C)O (stereo not given) :: 105

IN: Recorded growth of Cc1ccc(CC(=O)O)c(C)c1 , please.
OUT: 105

IN: What value of growth has been recorded for this entry: C=CCSc1nnc(COc2ccc3c(C)c(Cc4ccccc4)c(=O)oc3c2C)o1
OUT: 104

IN: Requested read-out: growth. Entry: O=C(CBr)OCc1ccc([N+](=O)[O-])o1
OUT: 101

* * *

test system: SK-OV-3 ovarian; assay: NCI-60 one-dose screen, 48 h (100 = growth as untreated, 0 = no growth, -100 = all killed); conditions: 10 µM unless noted
The panel holds about 83,000 compounds, 20% with a hit somewhere; the sample as a whole holds those more often.
metric: growth (%)
Numeric answer only, unit % assumed.

CCOC(=O)C1=C(C(F)(F)F)NC(=O)NC1CN1C(=O)c2ccccc2C1=O (stereo not drawn) :: 121
CCn1cc(C(=O)O)c(=O)c2cc(F)c(N3CCN(S(=O)(=O)c4ccc(Cl)cc4)CC3)cc21 :: 40.8
CCOC(=O)c1csc(-c2ccc(COC(=O)c3ccccc3)o2)n1 :: 107

IN: Form field: growth recorded for O=C(CCC(=O)N(CCO)CCO)N(CCO)CCO with SK-OV-3 ovarian (enter value)
OUT: 99

IN: Request - read-out growth | tested on SK-OV-3 ovarian | compound CCOc1ccc(Br)cc1/C=C(\C#N)c1ccc([N+](=O)[O-])cc1
OUT: 44.4

IN: Short answer please: growth, SK-OV-3 ovarian, entry CCCCCCCCCCCCc1ccc([N+](CC)(CC)CC)cc1
OUT: 73.2

IN: Kindly state the measured growth obtained for O=C(NCCO)C(F)(F)F with SK-OV-3 ovarian.
OUT: 100

* * *

system: SW-620 colon; test: NCI-60 one-dose screen, 48 h (100 = growth as untreated, 0 = no growth, -100 = all killed); conditions: 10 µM unless noted
This is part of a sample that, as a whole, favours compounds with a hit. Of some 83,000 tested, about 20% had one in any assay. Active and inactive are the calls of the source. How the source made its calls: active means growth percent below 10; inactive means the rest.
# growth per record follows

Worked examples follow.
CCCCCCCCCCCCCCCCC(=O)O.CCCCCCCCCCCCCCCCCC(=O)O.CCCCCCCCCCCCCCCCCC(=O)O.CCCCCCCCCCCCCCCCCC(=O)O.CCCCCCCCCCCCCCCCCC(=O)O.CO[CH-]OC12COC1CC(O)C1(C)C(O)C(OC(C)O)C3=C(C)C(OC(=O)C(O)C([NH-])c4ccccc4)CC(O)(C(OC(=O)c4ccccc4)C21)C3(C)C.[Cu+].[Zn].[Zn].[Zn].[Zn].[Zn] (stereo not drawn) :: 44.7% (inactive)
CCC(C)C1NC(=O)C(CCCCN)NC(=O)C(CCCCN)NC(=O)C(CC(C)C)NC(=O)C(CCCCN)NC(=O)C(C(C)CC)NC(=O)C(C(C)C)NC(=O)C(C(C)CC)NC(=O)C(CCCCN)NC(=O)C(CCCCN)NC(=O)C(C)NC(=O)C(CCCCN)NC(=O)C(CC(C)C)NC1=O (stereo not drawn) :: 39.1% (inactive)
Nc1nc2c(c3cnccc13)C(c1cccc(Cl)c1)Cc1cnccc1-2 (stereo not drawn) :: 24.2% (inactive)
COc1ccc2nc3cc(Cl)ccc3c(NCCCNC(C)=O)c2c1 :: 27% (inactive)
CCCOC(=O)c1c(C)n(C)c2scc[n+]12 :: 77.8% (inactive)

IN: Consider the molecule CCn1cnc(C[C@H](NC(=O)[C@@H](NC(=O)Nc2cc(C(F)(F)F)cc(C(F)(F)F)c2)C(C)(C)C)C(=O)OC)c1 and give its measured growth.
OUT: -60% [100 µM] (active)

IN: Entry CC1=C(C)C[C@]2(C(=O)O[C@H]3CCCC[C@@H]32)[S@](=O)C1 : reported growth = ?
OUT: 110% (inactive)

IN: What value of growth has been reported for the following molecule? O=C1C=C(OCC=C(C(F)(F)F)C(F)(F)F)c2ccccc2C1=O
OUT: -34.9% (active)

IN: What measured growth goes with CC(=O)Nc1nc(C)c(C(=O)NNS(=O)(=O)c2ccccc2)s1 ?
OUT: 106% (inactive)

IN: Suppose we examine the molecule Cc1c(CN(C)C)cc(C(C)C)cc1C(C)C ; what growth value has been reported?
OUT: 104% (inactive)

IN: Which growth is reported for this molecule? C[C@H]1C[C@@H](n2cnc3c(N)nccc32)[C@H](O)[C@@H]1O
OUT: 87.2% (inactive)

IN: Reported growth for Nc1nc2c(c3cnccc13)C(c1cccc(Br)c1)Cc1cnccc1-2 (stereo not drawn) : what is it?
OUT: 25.9% (inactive)

IN: Field request: growth | item: COc1ccc(/C=N/c2cc(C(C)(C)C)nn2-c2ccccc2)cc1
OUT: 101% (inactive)

IN: Dear colleague, I am looking for the recorded growth of the following molecule: CC(=O)/C(=C/c1ccc(-c2ccccc2)cc1)C(=O)c1ccccc1
OUT: 85.5% (inactive)

IN: Can you look up the measured growth of CC1(c2ccc(Br)cc2)NC(=O)NC1=O (stereo not drawn) for me?
OUT: 106% (inactive)

IN: Entry under review: COc1ccc2cnc(N)c(C#Cc3cc(C(=O)Nc4ccc(CN5CCN(C)CC5)c(C(F)(F)F)c4)cnc3C)c2c1 . Reported growth?
OUT: 13.8% (inactive)

IN: Tell me the measured growth of FC(F)(F)c1cccc(-c2[nH]ncc2-c2nnnn2-c2ccccc2)c1 , please.
OUT: 16.5% (inactive)
